Assay: Freeze-thaw stability in spiked pooled human plasma
Type: physicochemical
Conditions: validation standard MOV
Measured Endpoint: Freeze-Thaw Accuracy [%]
The reply should read as a number followed by its unit.

>  <Compound>
CN(C)C/C=C/C(=O)Nc1cc2c(Nc3ccc(F)c(Cl)c3)ncnc2cc1O[C@H]1CCOC1 [Afatinib]

>  <Freeze-Thaw Accuracy [%]>
96.1%

$$$$

Entry Cc1ccc(Nc2nccc(N(C)c3ccc4c(C)n(C)nc4c3)n2)cc1S(N)(=O)=O [Pazopanib] has what Freeze-Thaw Accuracy [%]?
103.9%

Entry O=C1CCC(N2C(=O)c3ccccc3C2=O)C(=O)N1 (centres unmarked) [Thalidomide] has what Freeze-Thaw Accuracy [%]?
74.7%

Entry O=C(Nc1cnn2ccc(N3CCC[C@@H]3c3cc(F)ccc3F)nc12)N1CC[C@H](O)C1 [Larotrectinib] has what Freeze-Thaw Accuracy [%]?
100.3%

Entry O=c1[nH]c(=O)n([C@H]2C[C@H](O)[C@@H](CO)O2)cc1C(F)(F)F [Trifluridine] has what Freeze-Thaw Accuracy [%]?
94.4%

---

Test: Freeze-thaw stability in spiked pooled human plasma
Type: physicochemical
Conditions: validation standard MOV
Measured Endpoint: Freeze-Thaw Accuracy [%] (%)
Give the number; % is assumed, so skip it.

Recorded results for 3 compounds are shown here.
>  <Compound>
CCC1=C[C@@H]2CN(C1)Cc1c([nH]c3ccccc13)[C@@](C(=O)OC)(c1cc3c(cc1OC)N(C)[C@H]1[C@@](O)(C(=O)OC)[C@H](OC(C)=O)[C@]4(CC)C=CCN5CC[C@]31[C@@H]54)C2 [Vinorelbine]

>  <Freeze-Thaw Accuracy [%], %>
95.7

$$$$
>  <Compound>
Cc1cn(-c2cc(NC(=O)c3ccc(C)c(Nc4nccc(-c5cccnc5)n4)c3)cc(C(F)(F)F)c2)cn1 [Nilotinib]

>  <Freeze-Thaw Accuracy [%], %>
100.9

$$$$
>  <Compound>
CCN1CCN(Cc2ccc(Nc3ncc(F)c(-c4cc(F)c5nc(C)n(C(C)C)c5c4)n3)nc2)CC1 [Abemaciclib]

>  <Freeze-Thaw Accuracy [%], %>
102.7

$$$$

Entry COc1cc2nccc(Oc3ccc(NC(=O)NC4CC4)c(Cl)c3)c2cc1C(N)=O [Lenvatinib] has what Freeze-Thaw Accuracy [%]?
98.4

---

Assay: Long-term stability in spiked pooled human plasma
Settings: validation standard LLOV
Measured Endpoint: Long-term stability, 3 month, -80°C Accuracy [%] (%)
Give the number; % is assumed, so skip it.

>  <Compound>
O=C(c1ccc(F)c(F)c1Nc1ccc(I)cc1F)N1CC(O)([C@@H]2CCCCN2)C1

>  <Unit Abbrev>
%

>  <Quantitative Readout>
100.3

$$$$

Entry Cc1c(C(=O)Nc2ccc(N3C[C@@H](C)O[C@@H](C)C3)nc2)cccc1-c1ccc(OC(F)(F)F)cc1 has what Long-term stability, 3 month, -80°C Accuracy [%]?
109.9

Entry Nc1cccc2c1C(=O)N(C1CCC(=O)NC1=O)C2=O (centres unmarked) [Pomalidomide] has what Long-term stability, 3 month, -80°C Accuracy [%]?
97.4

Entry CC(=O)Nc1cccc(-n2c(=O)n(C3CC3)c(=O)c3c(Nc4ccc(I)cc4F)n(C)c(=O)c(C)c32)c1 has what Long-term stability, 3 month, -80°C Accuracy [%]?
104.8

Entry COc1cc2c(Nc3ccc(Br)cc3F)ncnc2cc1OCC1CCN(C)CC1 has what Long-term stability, 3 month, -80°C Accuracy [%]?
83.6

Hey, just so you know, these numbers are from paper PMC8699473.
